Where do these numbers come from? They come from PubChem BioAssay AID330.

// values below are reported T/C
# Tested on: P388 leukemia ip, CD2F1 mice, survival T/C
# experiment-description: NCI In Vivo Anticancer Drug Screen. Data for tumor model P388 Leukemia (intraperitoneal) in CD2F1 (CDF1) mice
# condition-set: endpoint: median survival time; dose: 6.25 mg/kg/injection; schedule: Q01DX005 (ip); vehicle: saline with Tween-80; higher = longer survival
Toxic doses and inconclusive results are not listed.

[[record]]
compound = "O=C(Nc1cccc(O)c1)C(Cl)=C(Cl)Cl"
result_type = "T/C"
result = "101 % of control"

[[record]]
compound = "CCC1(c2ccccc2)NN1C1CCCCC1 (stereo unspecified)"
result_type = "T/C"
result = "100 % of control"

[[record]]
compound = "O=C(Cc1nc2ccccc2nc1CC(=O)c1ccncc1)c1ccncc1"
result_type = "T/C"
result = "102 % of control"


Query string: Consider the compound "O=C1c2ccccc2-c2c1c1ccccc1c(=O)n2Cc1ccccc1" and give its measured T/C.
Result string: 101 % of control

Query string: Returns the measured T/C for the input compound. Input: "N#CN(Cc1ccccc1)C(c1ccccc1)(c1ccccc1)c1ccccc1.[Cl][Sn]([c]1ccccc1)([c]1ccccc1)[c]1ccccc1"
Result string: 98 % of control

Query string: Which measured T/C value corresponds to CCOC(=O)N1CCN(C(=S)NNC(C)c2cc3ccccc3cn2)CC1 (stereo unspecified) ?
Result string: 103 % of control

* * *

# Tested on: P388 leukemia ip, CD2F1 mice, survival T/C
# experiment-description: NCI In Vivo Anticancer Drug Screen. Data for tumor model P388 Leukemia (intraperitoneal) in CD2F1 (CDF1) mice
# condition-set: endpoint: median survival time; dose: 200.0 mg/kg/injection; schedule: Q01DX005 (ip); vehicle: saline; higher = longer survival
Toxic doses and inconclusive results are not listed.
Listing of entries alongside the reported T/C.

Known T/C results, listed for orientation:
[[record]]
compound = "CNC(=O)c1n[nH]c(=S)[nH]c1=O"
result = "101 % of control"

[[record]]
compound = "CN(C)C1C(=O)C(C(=O)NCNC(C=O)C(O)C(O)C(O)CO)=C(O)C2(O)C(=O)C3=C(O)c4c(O)cccc4C(C)(O)C3CC12 (configuration not stated)"
result = "96 % of control"

[[record]]
compound = "CCN(CC)CCn1c2c(c3ccc(OC)cc31)CCN1CC3CC(OC(=O)c4cc(OC)c(OC)c(OC)c4)C(OC)C(C(=O)OC)C3CC21 (configuration not stated)"
result = "106 % of control"

[[record]]
compound = "CC(C)Sc1ncn[nH]1"
result = "102 % of control"

[[record]]
compound = "O=C1NC(CCO)C(=O)NC1CCO (configuration not stated)"
result = "106 % of control"


Query string: Which measured T/C value corresponds to CC1OC(=O)C(C2OC2C)=CC1O (configuration not stated) ?
Result string: 105 % of control

Query string: GET /values?readout=T/C&item= "O=c1c(Br)cn(Cc2ccccc2)cc1Br"
Result string: 90 % of control

Query string: Given the compound NNC(=O)C(O)C(O)C(O)C(O)CO (configuration not stated) , what is its reported T/C?
Result string: 100 % of control

Query string: Entry under review: "S[C@@H]1CCCN1" . Reported T/C?
Result string: 99 % of control

Query string: Recorded T/C for CCCCCCC1OCN2CCCCC12 (configuration not stated) , please?
Result string: 109 % of control

Query string: Suppose we examine the compound "CCN(CC)CCNc1ccc(C)c2sc3cc(O)ccc3c(=O)c12" ; what T/C value has been reported?
Result string: 106 % of control

Query string: // T/C lookup, key: CNC(=O)OC(C)C1CCCCC1OC(=O)NC (configuration not stated)
Result string: 100 % of control

* * *

# Test system: P388 leukemia ip, CD2F1 mice, survival T/C
# experiment-description: NCI In Vivo Anticancer Drug Screen. Data for tumor model P388 Leukemia (intraperitoneal) in CD2F1 (CDF1) mice
# condition-set: endpoint: median survival time; dose: 50.0 mg/kg/injection; schedule: Q01DX009 (ip); vehicle: suspension in saline; higher = longer survival
Toxic doses and inconclusive results are not listed.
Each entry below carries its recorded T/C.

Check out these entries, answers already filled in.
[[record]]
compound = "CC/C(=C(\\c1ccccc1)c1ccc(OCCN(C)C)cc1)c1ccccc1"
result_type = "T/C"
result = "101 % of control"

[[record]]
compound = "Cc1cccc(N2CCN(c3ccc4nonc4c3[N+](=O)[O-])CC2)c1"
result_type = "T/C"
result = "98 % of control"

[[record]]
compound = "CCCS/C(N)=N/N=C/c1ccc([N+](=O)[O-])o1"
result_type = "T/C"
result = "109 % of control"

[[record]]
compound = "CC(C)C(N)P(=O)(O)O (stereo unspecified)"
result_type = "T/C"
result = "98 % of control"


Query string: Report T/C for "Fc1ccc(NC(=S)SCc2ccc(Cl)c(Cl)c2)cc1" please.
Result string: 90 % of control

Query string: For "Cc1cc(NC(=S)SCc2ccc(Cl)cc2)ccc1Br" , what is its reported T/C?
Result string: 108 % of control

* * *

# Test system: P388 leukemia ip, CD2F1 mice, survival T/C
# experiment-description: NCI In Vivo Anticancer Drug Screen. Data for tumor model P388 Leukemia (intraperitoneal) in CD2F1 (CDF1) mice
# condition-set: endpoint: median survival time; dose: 100.0 mg/kg/injection; schedule: Q01DX005 (ip); vehicle: Klucel (hydroxypropylcellulose) (HPC); higher = longer survival
Toxic doses and inconclusive results are not listed.
List of T/C values.

[[record]]
compound = "CC(C)(C)C1=CC(CC(N)=O)(C(C)(C)C)OC1=O (stereo unspecified)"
tgt = "P388 leukemia ip, CD2F1 mice, survival T/C"
result = "100 % of control"


Query string: Consider the compound shown here: "C[C@@]12CCC[C@@](C)(C(=O)O)[C@H]1CC[C@]13C[C@@H](CO)[C@@H](CC[C@H]12)C3" What is its recorded T/C?
Result string: 90 % of control

Query string: # query: T/C of entry CC1(C)OC2OC(/C=N\NC(=O)c3cc4cc(OCc5ccccc5)ccc4[nH]3)C3OC(C)(C)OC3C2O1 (stereo unspecified)
Result string: 104 % of control

Query string: What T/C value was documented for this compound, "C/C(=N\N(C)/C=N/S(C)(=O)=O)c1ccccc1" ?
Result string: 95 % of control

Query string: Which T/C value belongs to CC(C)CC(NCCC#N)C(=O)O (stereo unspecified) ?
Result string: 105 % of control

* * *

Below is a list of entries, each paired with its recorded T/C value.
# Test system: P388 leukemia ip, CD2F1 mice, survival T/C
# experiment-description: NCI In Vivo Anticancer Drug Screen. Data for tumor model P388 Leukemia (intraperitoneal) in CD2F1 (CDF1) mice
# condition-set: endpoint: median survival time; dose: 240.0 mg/kg/injection; schedule: Q01DX005 (ip); vehicle: Klucel (hydroxypropylcellulose) (HPC); higher = longer survival
Toxic doses and inconclusive results are not listed.

Answered cases to consult:
[[record]]
compound = "COc1ccc2oc(=O)n(N=C(C)C)c(=O)c2c1"
result = "94 % of control"

[[record]]
compound = "CCOC(=O)C1=C(C(C)=O)C(c2cccc([N+](=O)[O-])c2)C(C(C)=O)=C(C(=O)OCC)N1"
result = "95 % of control"


Query string: For the compound "O=C(NCCO)c1ccc(O)cc1O" , what T/C is on record?
Result string: 120 % of control

Query string: Which T/C is listed for "N#Cc1c[nH]n2ccnc12" ?
Result string: 105 % of control

Query string: What value of measured T/C is listed for "CCOC(=O)c1ccc(NC(=O)CCOc2ccccc2)cc1" ?
Result string: 87 % of control

Query string: Which measured T/C value corresponds to CC(C)CC(NC(=O)OCCc1ccccn1)C(=O)NC(Cc1ccccc1)C(=O)OC(C)(C)C (stereo unspecified) ?
Result string: 94 % of control

* * *

T/C listing for selected molecules.
# Test system: P388 leukemia ip, CD2F1 mice, survival T/C
# experiment-description: NCI In Vivo Anticancer Drug Screen. Data for tumor model P388 Leukemia (intraperitoneal) in CD2F1 (CDF1) mice
# condition-set: endpoint: median survival time; dose: 120.0 mg/kg/injection; schedule: Q01DX005 (ip); vehicle: saline with Tween-80; higher = longer survival
Toxic doses and inconclusive results are not listed.

Reference set (3 entries):
[[record]]
molecule = "CCCCCCCCCCCCCCCCC1=C(C(=O)OC)NC(N)=NC1O (stereo unspecified)"
tgt = "P388 leukemia ip, CD2F1 mice, survival T/C"
result_type = "T/C"
result = "103 % of control"

[[record]]
molecule = "O=C1ON=C(c2ccccc2)/C1=C\\C=C\\c1ccccc1"
tgt = "P388 leukemia ip, CD2F1 mice, survival T/C"
result_type = "T/C"
result = "98 % of control"

[[record]]
molecule = "Nc1ccc(S(=O)(=O)Nc2nc(-c3ccccc3)cc(-c3ccccc3O)n2)cc1"
tgt = "P388 leukemia ip, CD2F1 mice, survival T/C"
result_type = "T/C"
result = "96 % of control"


Query string: Quick check: T/C of "Nc1nc(-c2cc(C(c3ccccc3)c3ccccc3)nc(N)n2)cc(C(c2ccccc2)c2ccccc2)n1" ?
Result string: 109 % of control

Query string: Can you look up the measured T/C of "CCOCc1nc(N)nc(N)c1-c1cccc(Cl)c1" for me?
Result string: 102 % of control

Query string: Fill in the blank: the reported T/C of "NCCCn1[nH]c(=O)c2ncccc2c1=O" is ____.
Result string: 112 % of control
